Known Ki of a selection of molecules
Biological target: thrombin receptor (Homo sapiens)
Construct: tissue North Jersey Blood Center (East Orange, N.J.)
Assay: High throughput thrombin receptor radioligand binding assay ([3H]haTRAP, platelet membranes)
Settings: [3H]haTRAP binding to platelet membranes
Express your answer in nM, writing the number without its unit.

Example cases with answers are listed next.
O=C1C[C@H]2[C@@H]3CCCC[C@H]3[C@H](/C=C/c3ccc(-c4cccc(F)c4)cn3)C[C@H]2O1	3.1
C[C@@H]1[C@@H](C)[C@H](/C=C/c2ccc(-c3ccccc3C#N)cn2)C[C@H]2OC(=O)C[C@@H]12	11

Known value: thrombin receptor (Homo sapiens) Ki of the molecule N#Cc1cccc(-c2ccc(/C=C/[C@@H]3C[C@H]4OC(=O)C[C@H]4[C@@H]4CCCC[C@H]43)nc2)c1 equals 4.3

Known value: thrombin receptor (Homo sapiens) Ki of the molecule O=C1C[C@H]2[C@@H]3CCCC[C@H]3[C@H](/C=C/c3ccc(-c4cc(Cl)ccc4Cl)cn3)C[C@H]2O1 equals 13

* * *

Target: thrombin receptor (Homo sapiens, UniProt P25116)
Construct: tissue North Jersey Blood Center (East Orange, N.J.)
Sequence (P25116 22-425): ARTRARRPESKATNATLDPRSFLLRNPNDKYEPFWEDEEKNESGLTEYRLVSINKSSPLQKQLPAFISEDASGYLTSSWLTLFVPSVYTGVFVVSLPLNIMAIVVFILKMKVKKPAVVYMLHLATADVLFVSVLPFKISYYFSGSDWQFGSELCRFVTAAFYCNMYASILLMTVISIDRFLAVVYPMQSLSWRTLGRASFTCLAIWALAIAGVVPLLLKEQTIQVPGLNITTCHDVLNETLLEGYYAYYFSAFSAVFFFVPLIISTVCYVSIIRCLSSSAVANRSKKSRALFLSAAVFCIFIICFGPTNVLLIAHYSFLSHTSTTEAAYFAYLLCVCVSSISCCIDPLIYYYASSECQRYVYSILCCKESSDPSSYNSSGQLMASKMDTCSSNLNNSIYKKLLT
Experiment: High throughput thrombin receptor radioligand binding assay ([3H]haTRAP, platelet membranes)
Conditions: [3H]haTRAP binding to platelet membranes
Known pIC50 of a selection of compounds
For clarity, pIC50 is expressed as the negative log10 of concentration in mol/L.

Example cases with answers are listed next.
C[C@@H]1[C@@H](C)[C@H](/C=C/c2ccc(-c3ccccc3C#N)cn2)C[C@@H]2OC(=O)C[C@@H]12	7.35
C[C@@H]1[C@@H](C)[C@H](/C=C/c2ccc(-c3ccccc3C#N)cn2)C[C@H]2OC(=O)C[C@@H]12	7.80
N#Cc1cccc(-c2ccc(/C=C/[C@@H]3C[C@H]4OC(=O)C[C@H]4[C@@H]4CCCC[C@H]43)nc2)c1	8.17
O=C1C[C@H]2[C@@H]3CCCC[C@H]3[C@H](/C=C/c3ccc(-c4cccc(F)c4)cn3)C[C@H]2O1	8.32

Kindly review the next compound as well.
The compound listed as O=C1C[C@H]2[C@@H]3CCCC[C@H]3[C@H](/C=C/c3ccc(-c4cc(Cl)ccc4Cl)cn3)C[C@H]2O1 has a reported pIC50 of 7.70
